Assay: Metabolic stability in mouse liver microsomes assessed as half life
Type: ADME, Microsome
Observed property: half-life

| Smiles entry | Result |
| --- | --- |
| C[C@H](NC(=O)c1c(Cc2ccc(C(F)(F)F)cc2)sc2c1CCOC2)c1ccc(C(=O)O)cc1 | > 2.42 h |
| C[C@H](NC(=O)c1c(CCc2ccc(F)cc2)sc2c1CCOC2)c1ccc(C(=O)O)cc1 | > 2.42 h |
| C[C@H](NC(=O)c1c(CCc2ccc(F)cc2)sc2c1CCC2)c1ccc(C(=O)O)cc1 | 0.268 h |
| C[C@H](NC(=O)c1c(C(F)F)nn(C)c1Oc1cccc(C(F)(F)F)c1)c1ccc(C(=O)O)cc1 | > 2.42 h |
| C[C@H](NC(=O)c1c(Cc2cccc(C(F)(F)F)c2)sc2c1CCOC2)c1ccc(C(=O)O)cc1 | > 2.42 h |
| O=C(O)c1ccc(CNC(=O)c2c(Cc3ccc(F)cc3)sc3c2CCOC3)cc1 | > 2.42 h |

* * *

Target: Prostaglandin E2 receptor EP4 subtype (Homo sapiens, UniProt P35408)
Sequence (P35408 whole entry): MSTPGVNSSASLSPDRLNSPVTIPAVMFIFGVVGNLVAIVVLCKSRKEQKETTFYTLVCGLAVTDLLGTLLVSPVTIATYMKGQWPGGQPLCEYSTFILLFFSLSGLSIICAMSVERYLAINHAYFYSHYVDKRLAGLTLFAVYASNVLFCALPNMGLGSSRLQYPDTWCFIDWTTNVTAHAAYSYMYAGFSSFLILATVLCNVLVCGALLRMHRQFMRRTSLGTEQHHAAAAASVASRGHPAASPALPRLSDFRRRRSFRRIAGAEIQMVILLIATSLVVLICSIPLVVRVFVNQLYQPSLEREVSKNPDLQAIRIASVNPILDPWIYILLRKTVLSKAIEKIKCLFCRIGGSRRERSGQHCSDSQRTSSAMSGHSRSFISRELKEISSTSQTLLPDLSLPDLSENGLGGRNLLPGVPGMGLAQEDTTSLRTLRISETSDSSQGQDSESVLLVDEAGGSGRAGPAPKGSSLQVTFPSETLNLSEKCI
Assay: Antagonist activity at human EP4 receptor transfected in CHO/Galpha16 cells preincubated for 15 mins followed by PGE2 addition by calcium flux assay
pIC50: −log10 of the molar value.
Criterion: pIC50 meeting or surpassing 8. Met: true (1). Not met: false (0).

| Smiles entry | Assigned label |
| --- | --- |
| CC(C)c1ccc(Cc2sc3c(c2C(=O)N[C@@H](C)c2ccc(C(=O)O)cc2)CCOC3)cc1 | true (1) |
| C[C@H](NC(=O)c1c(/N=C/c2cccc(C(F)(F)F)c2)sc2c1CCOC2)c1ccc(C(=O)O)cc1 | false (0) |
| CC(=O)N1CCc2c(sc(CCc3ccc(F)cc3)c2C(=O)N[C@@H](C)c2ccc(C(=O)O)cc2)C1 | false (0) |
| C[C@H](NC(=O)c1c(NC(=O)c2ccc(F)cc2)sc2c1CCOC2)c1ccc(C(=O)O)cc1 | false (0) |
| C[C@H](NC(=O)c1c(CCc2ccc(F)cc2)sc2c1CC(C)(C)OC2)c1ccc(C(=O)O)cc1 | false (0) |
| C[C@H](NC(=O)c1c(Cc2cccc(Cl)c2)sc2c1CCOC2)c1ccc(C(=O)O)cc1 | true (1) |
| COc1cccc(Cc2sc3c(c2C(=O)N[C@@H](C)c2ccc(C(=O)O)cc2)CCOC3)c1 | true (1) |

* * *

Experiment: Cytotoxicity against HEK293 cells assessed as reduction in cell viability incubated for 72 hrs by CCK-8 assay
Format: toxicity, cell-based
Settings: human
# IC50 at 72 h values compiled below
Observed property: IC50 at 72 h

| Molecule | Result |
| --- | --- |
| C[C@H](NC(=O)c1c(Cc2cccc(C(F)(F)F)c2)sc2c1CCOC2)c1ccc(C(=O)O)cc1 | > 100 µM |
| C[C@H](NC(=O)c1c(Cc2ccc(C(F)(F)F)cc2)sc2c1CCOC2)c1ccc(C(=O)O)cc1 | > 100 µM |
| C[C@H](NC(=O)c1c(C(F)F)nn(C)c1Oc1cccc(C(F)(F)F)c1)c1ccc(C(=O)O)cc1 [PALUPIPRANT] | > 100 µM |
| C[C@H](NC(=O)c1c(CCc2ccc(F)cc2)sc2c1CCOC2)c1ccc(C(=O)O)cc1 | > 100 µM |

* * *

Experiment: AUC (0 to infinity) in BALB/c mouse at 5 mg/kg, po measured upto 24 hrs by LC-MS/MS analysis
Type: ADME, organism-based
Set-up: dose 5 mg/kg, time < 24 hrs, route po
Details: in vivo

| Smiles entry | AUC(0-inf) [ng·h/mL] |
| --- | --- |
| C[C@H](NC(=O)c1c(Cc2cccc(C(F)(F)F)c2)sc2c1CCOC2)c1ccc(C(=O)O)cc1 | 1690 |
| O=C(O)c1ccc(CNC(=O)c2c(Cc3ccc(F)cc3)sc3c2CCOC3)cc1 | 2220 |

* * *

Assay: Metabolic stability in human liver microsomes assessed as half life
Type: ADME, Microsome
Observed property: half-life (min)

| Smiles entry | Qualifier sign | Quantitative result |
| --- | --- | --- |
| C[C@H](NC(=O)c1c(C(F)F)nn(C)c1Oc1cccc(C(F)(F)F)c1)c1ccc(C(=O)O)cc1 | > | 145 |
| C[C@H](NC(=O)c1c(CCc2ccc(F)cc2)sc2c1CCOC2)c1ccc(C(=O)O)cc1 | = | 48.6 |
| C[C@H](NC(=O)c1c(CCc2ccc(F)cc2)sc2c1CCCC2)c1ccc(C(=O)O)cc1 | = | 14 |
| O=C(O)c1ccc(CNC(=O)c2c(Cc3ccc(F)cc3)sc3c2CCOC3)cc1 | > | 145 |
| C[C@H](NC(=O)c1c(CCc2ccc(F)cc2)sc2c1CCC2)c1ccc(C(=O)O)cc1 | = | 6.3 |
| C[C@H](NC(=O)c1c(Cc2cccc(C(F)(F)F)c2)sc2c1CCOC2)c1ccc(C(=O)O)cc1 | > | 145 |
| C[C@H](NC(=O)c1c(Cc2ccc(C(F)(F)F)cc2)sc2c1CCOC2)c1ccc(C(=O)O)cc1 | > | 145 |

* * *

# inhibition at 20 µM values compiled below
Target: CYP2B6 (Homo sapiens, UniProt P20813)
Sequence (P20813 whole entry): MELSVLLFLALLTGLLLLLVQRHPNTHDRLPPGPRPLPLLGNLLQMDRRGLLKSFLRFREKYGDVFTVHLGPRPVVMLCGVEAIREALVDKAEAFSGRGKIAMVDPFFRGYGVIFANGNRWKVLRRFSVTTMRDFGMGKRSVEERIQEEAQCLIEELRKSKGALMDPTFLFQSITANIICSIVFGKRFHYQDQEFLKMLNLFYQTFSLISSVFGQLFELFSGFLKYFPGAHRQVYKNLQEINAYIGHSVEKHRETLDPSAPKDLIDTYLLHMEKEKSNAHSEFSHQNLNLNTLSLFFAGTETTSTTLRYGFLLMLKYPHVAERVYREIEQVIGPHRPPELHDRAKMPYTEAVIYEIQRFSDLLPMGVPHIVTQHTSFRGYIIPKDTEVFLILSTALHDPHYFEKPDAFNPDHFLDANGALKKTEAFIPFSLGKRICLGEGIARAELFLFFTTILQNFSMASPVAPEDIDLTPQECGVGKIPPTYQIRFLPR
Experiment: Inhibition of CYP2B6 (unknown origin) at 20 uM
Type: ADME
Observed property: inhibition at 20 µM (%)

| Smiles entry | Quantitative result |
| --- | --- |
| C[C@H](NC(=O)c1c(CCc2ccc(F)cc2)sc2c1CCOC2)c1ccc(C(=O)O)cc1 | 76 |
| C[C@H](NC(=O)c1c(Cc2ccc(C(F)(F)F)cc2)sc2c1CCOC2)c1ccc(C(=O)O)cc1 | 68 |
| O=C(O)c1ccc(CNC(=O)c2c(Cc3ccc(F)cc3)sc3c2CCOC3)cc1 | 78 |
| C[C@H](NC(=O)c1c(Cc2cccc(C(F)(F)F)c2)sc2c1CCOC2)c1ccc(C(=O)O)cc1 | 75 |
| C[C@H](NC(=O)c1c(C(F)F)nn(C)c1Oc1cccc(C(F)(F)F)c1)c1ccc(C(=O)O)cc1 | 77 |

* * *

Molecular target: CYP2C9 (Homo sapiens, UniProt P11712)
Sequence (P11712 whole entry): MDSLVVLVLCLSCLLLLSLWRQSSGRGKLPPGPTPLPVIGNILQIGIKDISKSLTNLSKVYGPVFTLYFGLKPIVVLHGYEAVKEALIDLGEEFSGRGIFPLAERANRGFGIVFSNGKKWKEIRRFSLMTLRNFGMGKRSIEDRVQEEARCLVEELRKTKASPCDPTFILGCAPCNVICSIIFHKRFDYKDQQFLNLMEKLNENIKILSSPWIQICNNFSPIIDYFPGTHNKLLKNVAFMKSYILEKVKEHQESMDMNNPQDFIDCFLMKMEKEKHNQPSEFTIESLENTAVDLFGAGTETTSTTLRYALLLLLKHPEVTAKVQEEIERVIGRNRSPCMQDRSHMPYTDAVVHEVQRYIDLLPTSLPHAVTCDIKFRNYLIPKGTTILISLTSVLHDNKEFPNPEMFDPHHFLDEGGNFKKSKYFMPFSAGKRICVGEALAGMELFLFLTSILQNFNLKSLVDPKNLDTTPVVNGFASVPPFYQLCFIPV
Experiment: Inhibition of CYP2C9 (unknown origin) at 20 uM
Type: ADME
Criterion: inhibition at 20 µM meeting or surpassing 30%. Met: fulfilled. Not met: not fulfilled.

| Smiles entry | Target under test | Assigned label |
| --- | --- | --- |
| C[C@H](NC(=O)c1c(C(F)F)nn(C)c1Oc1cccc(C(F)(F)F)c1)c1ccc(C(=O)O)cc1 | CYP2C9 (Homo sapiens, UniProt P11712) | fulfilled |
| O=C(O)c1ccc(CNC(=O)c2c(Cc3ccc(F)cc3)sc3c2CCOC3)cc1 | CYP2C9 (Homo sapiens, UniProt P11712) | fulfilled |
| C[C@H](NC(=O)c1c(Cc2ccc(C(F)(F)F)cc2)sc2c1CCOC2)c1ccc(C(=O)O)cc1 | CYP2C9 (Homo sapiens, UniProt P11712) | not fulfilled |
| C[C@H](NC(=O)c1c(CCc2ccc(F)cc2)sc2c1CCOC2)c1ccc(C(=O)O)cc1 | CYP2C9 (Homo sapiens, UniProt P11712) | fulfilled |
| C[C@H](NC(=O)c1c(Cc2cccc(C(F)(F)F)c2)sc2c1CCOC2)c1ccc(C(=O)O)cc1 | CYP2C9 (Homo sapiens, UniProt P11712) | not fulfilled |

* * *

Test: AUC (0 to infinity) in BALB/c mouse at 1 mg/kg, iv measured upto 24 hrs by LC-MS/MS analysis
Type: ADME, organism-based
Set-up: time < 24 hrs, dose 1 mg/kg, route iv
Settings: in vivo
# AUC(0-inf) values compiled below

| Smiles entry | AUC(0-inf) (ng·h/mL) |
| --- | --- |
| O=C(O)c1ccc(CNC(=O)c2c(Cc3ccc(F)cc3)sc3c2CCOC3)cc1 | 735 |
| C[C@H](NC(=O)c1c(Cc2cccc(C(F)(F)F)c2)sc2c1CCOC2)c1ccc(C(=O)O)cc1 | 683 |
